Exercise: for every item that follows, state its recorded change in vivo at 500 mg/kg.
test system: spontaneous motor activity; assay: Action on spontaneous motor activity in the mouse (BOISSIER); format: in vivo; settings: po, 0.5 h, 500 mg/kg p.o., 30 minutes after administration, vs control, read-out: Percentage variation in motor activity
Don't forget the unit after the value.

# get_value(readout='change in vivo at 500 mg/kg', item= COc1cc(OC(=O)N2CCOCC2)cc(OC)c1OC )
-41%

# get_value(readout='change in vivo at 500 mg/kg', item= COc1cc(NC(=O)N2CCSCC2)cc(OC)c1OC )
-24%

# get_value(readout='change in vivo at 500 mg/kg', item= COc1cc(CNC(=O)Nc2cc(OC)c(OC)c(OC)c2)cc(OC)c1OC )
-20%

# get_value(readout='change in vivo at 500 mg/kg', item= COc1cc(NC(=O)CCN2CCOCC2)cc(OC)c1OC )
-17%

# get_value(readout='change in vivo at 500 mg/kg', item= COc1cc(NS(=O)(=O)N2CCOCC2)cc(OC)c1OC )
-53%

# get_value(readout='change in vivo at 500 mg/kg', item= COc1cc(NC(=O)N2CC=CCC2)cc(OC)c1OC )
-18%

Where do these numbers come from? They come from patent US4252804A.
